- measured-target: Androgen receptor (Homo sapiens) (UniProt P10275)
- Sequence (P10275 whole entry): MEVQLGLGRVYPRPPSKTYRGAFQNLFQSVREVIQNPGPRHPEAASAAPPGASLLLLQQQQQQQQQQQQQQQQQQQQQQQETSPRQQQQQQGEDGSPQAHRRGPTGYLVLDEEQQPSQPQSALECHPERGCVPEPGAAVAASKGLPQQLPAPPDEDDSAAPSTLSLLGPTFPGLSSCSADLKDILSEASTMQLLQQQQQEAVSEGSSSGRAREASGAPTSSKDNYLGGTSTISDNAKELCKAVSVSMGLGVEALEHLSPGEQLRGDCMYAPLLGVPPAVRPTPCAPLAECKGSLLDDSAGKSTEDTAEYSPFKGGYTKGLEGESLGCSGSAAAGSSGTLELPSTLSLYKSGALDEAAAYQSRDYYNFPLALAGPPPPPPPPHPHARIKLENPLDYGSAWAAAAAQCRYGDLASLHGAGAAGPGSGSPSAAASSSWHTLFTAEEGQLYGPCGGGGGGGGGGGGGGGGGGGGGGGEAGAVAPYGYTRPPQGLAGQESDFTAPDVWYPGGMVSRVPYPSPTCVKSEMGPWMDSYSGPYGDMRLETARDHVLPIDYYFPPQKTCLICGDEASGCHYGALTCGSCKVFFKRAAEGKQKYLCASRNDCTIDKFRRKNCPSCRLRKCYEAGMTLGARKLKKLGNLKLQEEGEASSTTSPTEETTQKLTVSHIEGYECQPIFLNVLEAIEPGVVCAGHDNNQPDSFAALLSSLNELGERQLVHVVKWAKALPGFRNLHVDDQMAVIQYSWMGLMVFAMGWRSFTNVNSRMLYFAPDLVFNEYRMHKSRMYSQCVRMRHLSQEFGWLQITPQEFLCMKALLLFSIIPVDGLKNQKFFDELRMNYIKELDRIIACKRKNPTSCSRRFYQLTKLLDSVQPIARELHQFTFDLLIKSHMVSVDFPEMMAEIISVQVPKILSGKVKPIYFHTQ
- assay-text: Agonist activity at androgen receptor in human LNAR cells expressing ARE-PSA-LUC at 1 uM by luminescence analysis relative to RD-162
- Type: functional, cell-based
Recorded fold change (FC), one value per entry.
recorded-metric: fold change (FC)

* N#CCn1c(=O)n(-c2ccc(C#N)c(C(F)(F)F)c2)c2ccccc21 | 1.42
* CC(C)n1c(=O)n(-c2ccc(C#N)c(C(F)(F)F)c2)c2ccccc21 | 0.965
* COc1cc(N2C(=O)C(C)(C)c3cc(-c4cccnc4OC)ccc32)ccc1C#N | 1.04
* CNC(=O)c1ccc(-c2ccc3c(c2)C(C)(C)C(=O)N3c2ccc(C#N)c(C(F)(F)F)c2)cc1F | 0.941
* N#Cc1ccc(-n2c(=O)n(Cc3ccccc3)c3ncccc32)cc1C(F)(F)F | 0.951
* CC(c1ccccc1)n1c(=O)n(-c2ccc(C#N)c(C(F)(F)F)c2)c2ccccc21 (single isomer, unassigned; (+)) | 0.904
* CC(c1nc(-c2ccccn2)no1)n1c(=O)n(-c2ccc(C#N)c(Cl)c2)c2ccccc21 (single isomer, unassigned; (+)) | 0.874
* N#Cc1ccc(-n2c(=O)n(Cc3ccccc3)c3ccccc32)cc1C(F)(F)F | 1.04
* N#Cc1ccc(-n2c(=O)n(Cc3ccccc3)c3cccnc32)cc1C(F)(F)F | 1.13

====

- assay-text: Metabolic stability in human liver microsomes assessed as extraction ratio
- Type: ADME, Microsome
- assay-conditions: read-out: ERH
recorded-metric: hepatic extraction ratio

* CNC(=O)c1ccc(-c2ccc3c(c2)C(C)(C)C(=O)N3c2ccc(C#N)c(C(F)(F)F)c2)cc1F | 0.4

====

- assay-text: Aqueous solubility of the compound
- Format: physicochemical
- assay-conditions: aqueous; read-out: solubility
# reported solubility; entries follow
recorded-metric: solubility (µM)

- CNC(=O)c1ccc(Cn2c(=O)n(-c3ccc(C#N)c(C(F)(F)F)c3)c3ccccc32)cc1F: 9.9
- CC(c1nc(-c2ccccn2)no1)n1c(=O)n(-c2ccc(C#N)c(Cl)c2)c2ccccc21 (single isomer, unassigned; (+)): 9.45
- N#Cc1ccc(-n2c(=O)n(Cc3ccccn3)c3ccccc32)cc1C(F)(F)F: 12

====

- measured-target: UniProt P10275
- assay-text: Agonist activity at androgen receptor in human LNAR cells expressing ARE-PSA-LUC at 1 uM by luminescence analysis relative to RD-162
- Type: functional, cell-based
recorded-metric: fold change (FC)

• CNC(=O)c1ccc(-n2c(=O)n(-c3ccc(C#N)c(C(F)(F)F)c3)c3ccccc32)cc1F = 1.44
• N#Cc1ncc(-n2c(=O)n(Cc3ccccc3)c3ccccc32)cc1C(F)(F)F = 1.04
• CC(c1nc(-c2ccccn2)no1)n1c(=O)n(-c2ccc(C#N)c(Cl)c2)c2ccccc21 (stereo in doubt; (-)-23) = 0.945
• N#Cc1ccc(-n2c(=O)n(Cc3nc(-c4ccccn4)no3)c3ccccc32)cc1Cl = 0.941
• N#Cc1ccc(-n2c(=O)n(Cc3cccnc3)c3ccccc32)cc1C(F)(F)F = 0.984

====

We begin with a simple list: items and their reported solubility.
- assay-text: Aqueous solubility of the compound
- Format: physicochemical
- assay-conditions: aqueous; read-out: solubility
recorded-metric: solubility

• CNC(=O)c1ccc(-c2ccc3c(c2)C(C)(C)C(=O)N3c2ccc(C#N)c(OC)c2)cc1F = 9.7 µM
• N#Cc1ccc(-n2c(=O)[nH]c3ccccc32)cc1C(F)(F)F = 7.9 µM
• N#Cc1ccc(-n2c(=O)n(Cc3nc(-c4ccccn4)no3)c3ccccc32)cc1Cl = 5.9 µM
• Cc1ccc(-n2c(=O)n(-c3ccc(C#N)c(C(F)(F)F)c3)c3ccccc32)cc1 = 0.79 µM
• CC(c1ccccc1)n1c(=O)n(-c2ccc(C#N)c(C(F)(F)F)c2)c2ccccc21 (stereo in doubt; (-)-20) = 5.58 µM

====

- measured-target: UniProt P10275
- assay-text: Antagonist activity at androgen receptor in human LNAR cells expressing ARE-PSA-LUC by luminescence analysis in presence of R1881
recorded-metric: IC50

• CC(c1ccccc1)n1c(=O)n(-c2ccc(C#N)c(C(F)(F)F)c2)c2ccccc21 (stereo in doubt; (-)-20) = 363 nM
• CC(c1nc(-c2ccccn2)no1)n1c(=O)n(-c2ccc(C#N)c(Cl)c2)c2ccccc21 (single isomer, unassigned; (+)) = 178 nM
• N#Cc1ccc(-n2c(=O)n(Cc3ccccc3)c3ccccc32)cc1C(F)(F)F = 170 nM
• N#Cc1ccc(-n2c(=O)n(Cc3ccccn3)c3ccccc32)cc1C(F)(F)F = 301 nM
• N#Cc1ccc(-n2c(=O)n(Cc3nc(-c4ccccn4)no3)c3ccccc32)cc1Cl = 126 nM
• CC(c1nc(-c2ccccn2)no1)n1c(=O)n(-c2ccc(C#N)c(Cl)c2)c2ccccc21 (stereo in doubt; (-)-23) = 189 nM
• N#Cc1ccc(-n2c(=O)n(Cc3ccccc3)c3ncccc32)cc1C(F)(F)F = 588 nM
• COc1cc(N2C(=O)C(C)(C)c3cc(-c4cccnc4OC)ccc32)ccc1C#N = 79.6 nM
• CCn1c(=O)n(-c2ccc(C#N)c(C(F)(F)F)c2)c2ccccc21 = 293 nM
• CC(C)n1c(=O)n(-c2ccc(C#N)c(C(F)(F)F)c2)c2ccccc21 = 373 nM
• N#Cc1ccc(-n2c(=O)n(Cc3cccnc3)c3ccccc32)cc1C(F)(F)F = 389 nM
• N#Cc1ccc(-n2c(=O)n(Cc3ccccc3)c3cccnc32)cc1C(F)(F)F = 60.6 nM
• CNC(=O)c1ccc(-c2ccc3c(c2)C(C)(C)C(=O)N3c2ccc(C#N)c(OC)c2)cc1F = 165 nM
• CC(c1ccccc1)n1c(=O)n(-c2ccc(C#N)c(C(F)(F)F)c2)c2ccccc21 (single isomer, unassigned; (+)) = 292 nM
• CNC(=O)c1ccc(-c2ccc3c(c2)C(C)(C)C(=O)N3c2ccc(C#N)c(C(F)(F)F)c2)cc1F = 197 nM

====

- measured-target: Androgen receptor (Homo sapiens)
- Sequence (P10275 whole entry): as above
- assay-text: Agonist activity at androgen receptor in human LNAR cells expressing ARE-PSA-LUC at 1 uM by luminescence analysis relative to RD-162
- Format: functional, cell-based
recorded-metric: fold change (FC)

- N#Cc1ccc(-n2c(=O)n(Cc3ccccn3)c3ccccc32)cc1C(F)(F)F: 1.03
- Cc1ccc(-n2c(=O)n(-c3ccc(C#N)c(C(F)(F)F)c3)c3ccccc32)cc1: 0.88
- N#Cc1ccc(-n2c(=O)[nH]c3ccccc32)cc1C(F)(F)F: 6.2
- CCn1c(=O)n(-c2ccc(C#N)c(C(F)(F)F)c2)c2ccccc21: 1.08
- CC1(C)C(=O)N(c2ccc(C#N)c(C(F)(F)F)c2)c2ccccc21: 1.96
- CNC(=O)c1ccc(Cn2c(=O)n(-c3ccc(C#N)c(C(F)(F)F)c3)c3ccccc32)cc1F: 1.08
- N#Cc1ncc(-n2c(=O)n(Cc3ccccc3)c3cccnc32)cc1C(F)(F)F: 1.1
- CC(c1ccccc1)n1c(=O)n(-c2ccc(C#N)c(C(F)(F)F)c2)c2ccccc21 (stereo in doubt; (-)-20): 0.833
- CNC(=O)c1ccc(-c2ccc3c(c2)C(C)(C)C(=O)N3c2ccc(C#N)c(OC)c2)cc1F: 0.884

====

List of inhibition values.
- measured-target: Androgen receptor (Homo sapiens)
- assay-text: Antagonist activity at androgen receptor in human LNAR cells expressing ARE-PSA-LUC at 1 uM by luminescence analysis in presence of R1881
- Format: functional, cell-based
recorded-metric: inhibition (%)

• N#Cc1ncc(-n2c(=O)n(Cc3ccccc3)c3cccnc32)cc1C(F)(F)F = 96.3
• N#Cc1ccc(-n2c(=O)[nH]c3ccccc32)cc1C(F)(F)F = 60.1
• CNC(=O)c1ccc(-n2c(=O)n(-c3ccc(C#N)c(C(F)(F)F)c3)c3ccccc32)cc1F = 28.7
• N#Cc1ncc(-n2c(=O)n(Cc3ccccc3)c3ccccc32)cc1C(F)(F)F = 91
